Target: benzodiazepine receptors
Experiment: Affinity for benzodiazepine receptors ([3H] flunitrazepam radioreceptor binding)
Conditions: inhibition of specific binding of 0.6 nM [^3 H] flunitrazepam, rat forebrain membrane preparations; read-out: Receptor Binding (IC50 nM)
QUANTITY: log10(IC50) (log10 of the value in nM)

{"columns": ["COMPOUND", "ASSAY SYSTEM", "log10(IC50)"],
 "data": [
  ["CSc1cc(C)n2cc(C(=O)c3ccccc3)nc2n1 [Example 21]", "benzodiazepine receptors", 2.28],
  ["C=CCc1c(OC)nc2nc(C(=O)c3ccccc3)cn2c1C [Example 20]", "benzodiazepine receptors", 1.65],
  ["COc1nc2nc(C(=O)c3ccccc3)cn2cc1C [Example 42]", "benzodiazepine receptors", 3.77],
  ["CCCc1c(OC)nc2nc(C(=O)c3ccccc3)cn2c1CC [Example 35]", "benzodiazepine receptors", 1.53],
  ["CCCCc1c(C)c(OC)nc2nc(C(=O)c3ccccc3)cn12 [Example 39]", "benzodiazepine receptors", 2.60],
  ["CCc1c(OC)nc2nc(C(=O)c3ccc(Cl)cc3)cn2c1C [Example 55]", "benzodiazepine receptors", 1.93],
  ["CCSc1nc2nc(C(=O)c3ccccc3)cn2c2c1CCC2 [Example 13]", "benzodiazepine receptors", 3.27],
  ["CSc1nc2nc(C(=O)c3ccccc3)cn2c2c1CCCC2 [Example 12]", "benzodiazepine receptors", 0.93],
  ["CCc1c(OC)nc2nc(C(=O)c3ccccc3)cn2c1CC [Example 31]", "benzodiazepine receptors", 2.03],
  ["CCc1c(SC)nc2nc(C(=O)c3ccccc3)cn2c1C [Example 49]", "benzodiazepine receptors", 1.08]
]}
